Cited source: patent US20250277029A1

# ASSAYED_TARGET: human cannabinoid receptor 1 (huCB1), full length, expressed on cells (human, UniProt P21554 1-472)
# Sequence (P21554 whole entry): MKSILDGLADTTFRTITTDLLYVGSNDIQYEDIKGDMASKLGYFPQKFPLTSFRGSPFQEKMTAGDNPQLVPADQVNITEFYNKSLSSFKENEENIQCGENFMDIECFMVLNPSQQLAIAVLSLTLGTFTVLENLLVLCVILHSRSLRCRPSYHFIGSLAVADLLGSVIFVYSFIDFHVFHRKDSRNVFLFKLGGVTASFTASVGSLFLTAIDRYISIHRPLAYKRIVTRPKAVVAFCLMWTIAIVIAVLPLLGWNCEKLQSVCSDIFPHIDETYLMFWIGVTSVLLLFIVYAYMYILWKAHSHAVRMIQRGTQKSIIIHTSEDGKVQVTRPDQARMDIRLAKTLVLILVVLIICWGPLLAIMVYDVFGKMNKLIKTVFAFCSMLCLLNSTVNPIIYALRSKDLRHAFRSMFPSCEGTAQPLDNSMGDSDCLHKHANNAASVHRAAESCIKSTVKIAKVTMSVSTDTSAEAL
# TEST_PROTOCOL: cell-based or functional assay
A collection of binders and their measured n = 2 IC50 (nM), cAMP antagonist assay

BINDER	RESULT_UNITS	n = 2 IC50 (nM), cAMP antagonist assay
LIBC523670-1 (antibody, V domains shown) VH: QVQLQESGPGLVKPSQTLSLTCTVSGGSIRRGGDYWAWIRQHPGKGLEWIGHVYQTGQTAYNPNLESRATISVNTYKNQFSLKLSSVTAADTAVYYCARNYDVLSGYSYYYYGMDVWGQGTTVTVSS VL: DIVMTQSPLSLPVTPGEPASISCRSSQSLLTSYGANYLDWYLQKPGQSPQLLIYQGSNRASGVPDRFSGSGSGTDFTLKISRVEAEDVGVYYCMQALQIPRTFGQGTKVEIKR	nM	3.52
LIBC523760-1 (antibody, V domains shown) VH: QVQLQESGPGLVKPSQTLSLTCTVSGGSIRRGGDYWSWIRQHPGKGLEWIGHVYQTGSTKYNPKFKGRATISVNTYKNQFSLKLSSVTAADTAVYYCARDYDILTGYSYYYYGMDVWGQGTTVTVSS VL: DIVMTQSPLSLPVTPGEPASISCRSSQSLLTSSGANYVDWYLQKPGQSPQLLIYLGSNRASGVPDRFSGSGSGTDFTLKISRVEAEDVGVYYCRQAVGTPRTFGQGTKVEIKR	nM	2.44
LIBC527814-1 (antibody, V domains shown, Expressed as IgG1 SEFL2 mAb) VH: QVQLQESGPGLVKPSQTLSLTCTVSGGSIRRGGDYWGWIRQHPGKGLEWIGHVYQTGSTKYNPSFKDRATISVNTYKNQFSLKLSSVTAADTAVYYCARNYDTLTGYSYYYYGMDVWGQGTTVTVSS VL: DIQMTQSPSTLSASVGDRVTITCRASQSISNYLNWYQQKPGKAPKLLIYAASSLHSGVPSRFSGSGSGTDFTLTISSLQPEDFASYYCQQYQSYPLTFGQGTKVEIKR	nM	1.22
LIBC523868-1 (antibody, V domains shown) VH: QVQLQESGPGLVKPSQTLSLTCTVSGGSIRRGGDYWSWIRQHPGKGLEWIGHVYYEGSTAYNPSFEDRATISVNTYKNQFSLKLSSVTAADTAVYYCARDYDILTGYSYYYYGMDVWGQGTTVTVSS VL: DIVMTQSPLSLPVTPGEPASISCRSSQSLLTSYGINYVDWYLQKPGQSPQLLIYLGSNRASGVPDRFSGSGSGTDFTLKISRVEAEDVGVYYCMQARQIPRTFGQGTKVEIKR	nM	3.32
